Cited source: ChEMBL document CHEMBL3988442

Test system: Wolbachia pipientis
assay-remarks: Anti-Wolbachia Cell-Based Screen
Format: functional
Design: scale not given: in the data most compounds retested in dose-response had high values
recorded-conditions: 5 µM
Out of some 48,000 compounds screened, about 13,000 (27%) showed an effect of 50% or more. Some of the results follow.
Entries annotated with measured Percent Effect
Write the value in % as a bare number.

# compound, target-or-test-system, Percent Effect [%]
rows = [
    ("c1ccc(CCN2CCCC2c2cncc(Nc3nncs3)n2)cc1 (centres undefined)", "Wolbachia pipientis", 77.51),
]

Need Percent Effect, item Cc1cc(C(C)(O)CNC(=O)C2(C)CCCC2)c(C)o1 (centres undefined)
-0.4765

Follow-up item: O=C(Nc1c(N2CCCC2)cccc1N1CCCC1)c1cnccn1
-1.067

Follow-up item: CC(=O)N1CC(C)CN(C(=O)c2cccnc2C)c2ccccc21 (centres undefined)
91.16
